- target-entity: JAK1 (Homo sapiens (Human), UniProt P23458)
- Sequence (P23458 875-1153): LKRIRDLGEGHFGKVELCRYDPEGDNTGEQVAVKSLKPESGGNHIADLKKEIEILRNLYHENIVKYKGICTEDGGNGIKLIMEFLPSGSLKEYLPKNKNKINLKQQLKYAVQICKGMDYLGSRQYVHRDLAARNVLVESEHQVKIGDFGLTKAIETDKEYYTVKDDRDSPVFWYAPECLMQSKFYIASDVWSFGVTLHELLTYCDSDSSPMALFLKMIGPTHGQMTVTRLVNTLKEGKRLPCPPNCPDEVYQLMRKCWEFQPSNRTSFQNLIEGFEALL
- experimental-details: Jak biochemical HTRF assay, JAK1
- setup-conditions: HTRF biochemical assay, recombinant GST-tagged catalytic domain; read-out: JAK1 IC50
# maps each entry to its log10 IC50
# values: log10(IC50), units nM

Sample records with log10 IC50:
* C[C@H](NC1CCC(n2nc(Nc3ccc(Cl)cc3)c3c(=O)[nH]ccc32)C(C#N)C1)C1CC1 (stereo in doubt) [Example 4-4] | 0.89
* CC(C)C(c1ccc(Nc2nn([C@H]3CCCC[C@@H]3C#N)c3cc[nH]c(=O)c23)cc1)n1nccn1 (single isomer, unassigned) [Example 15-30] | -0.44
* N#C[C@@H]1CCCC[C@H]1n1nc(Nc2cccc(CNC(=O)c3ncccn3)c2)c2c(=O)[nH]ccc21 [Example 3-14] | 1.58
* CC1(C)C(O)c2cc(Nc3nn([C@H]4CCCC[C@@H]4C#N)c4cc[nH]c(=O)c34)ccc2S1(=O)=O (single isomer, unassigned) [Example 3-172] | -0.41
* CCOC(=O)c1cnn(-c2ccc(Nc3nn([C@H]4CCCC[C@@H]4C#N)c4cc[nH]c(=O)c34)cc2C)c1 [Example 15-15] | 0.23
* N#C[C@H]1CCCC[C@@H]1n1nc(Nc2ccc3c(c2)CN([C@H]2CC[C@H](C(=O)O)CC2)S3(=O)=O)c2c(=O)[nH]ccc21 [Example 16-3] | -1.23
* N#C[C@H]1CCCC[C@@H]1n1nc(Nc2ccc([C@H](N)C(F)(F)F)cc2)c2c(=O)[nH]ccc21 [Example 7-4] | -0.96
* N#C[C@H]1CCCC[C@@H]1n1nc(Nc2ccc(C3CCCN3)cc2)c2c(=O)[nH]ccc21 (single isomer, unassigned) [Example 3-72] | -0.35
* CC(C)(CO)CN1Cc2cc(Nc3nn([C@H]4CCCC[C@@H]4C#N)c4cc[nH]c(=O)c34)ccc2S1(=O)=O [Example 3-82] | -0.96
* CC(C)OC(=O)C(C)(C)C(O)(c1ccc(Nc2nn([C@H]3CCCC[C@@H]3C#N)c3cc[nH]c(=O)c23)cc1)C(F)(F)F (single isomer, unassigned) [Example 3-119] | 0.72

Q. Would you mind telling me what log10 IC50 value was observed for CN1Cc2ccc(Nc3nn([C@H]4CCCC[C@@H]4C#N)c4cc[nH]c(=O)c34)cc2C1 [Example 3-64] ?
A. -0.41

Q. Please answer likewise for CC(O)(c1ccc(Nc2nn([C@H]3CCCC[C@@H]3C#N)c3cc[nH]c(=O)c23)cc1)C(F)(F)F (single isomer, unassigned) [Example 15-12]
A. -0.85

Q. Please answer likewise for N#C[C@H]1CCCC[C@@H]1n1nc(Nc2ccc(F)c(CN)c2)c2c(=O)[nH]ccc21 [Example 6-2]
A. -0.12
